Each item that follows carries a reported protein stability index.
B1: FBXO34 (parent)
chain: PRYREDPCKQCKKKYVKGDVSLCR

Variants of: B1
Assay: protein stability index of a GFP-peptide fusion (GPS, HEK-293T) (PSI 1-6); higher = more stable;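 also: lentivirally expressed fusions sorted by FACS into six bins by GFP to DsRed ratio, PSI derived from sequencing read proportions per bin multiplied by bin number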
Settings: c terminus: a fixed tail appended
Respond using a number only.

Known protein stability index results, listed for orientation:
mut=E5S observed_result=2.58
mut=P7R observed_result=2.31
mut=Q10L observed_result=2.04
mut=K12H observed_result=2.76
mut=Q10W observed_result=2.69
mut=K12C observed_result=1.58

Would you kindly look at the next entry?
What measured protein stability index goes with D6A ?
2.46
